Biological target: T1, S. aureus gamma-hemolysin component B (HlgB) (Staphylococcus aureus, UniProt P0A075 27-325)
T1 sequence: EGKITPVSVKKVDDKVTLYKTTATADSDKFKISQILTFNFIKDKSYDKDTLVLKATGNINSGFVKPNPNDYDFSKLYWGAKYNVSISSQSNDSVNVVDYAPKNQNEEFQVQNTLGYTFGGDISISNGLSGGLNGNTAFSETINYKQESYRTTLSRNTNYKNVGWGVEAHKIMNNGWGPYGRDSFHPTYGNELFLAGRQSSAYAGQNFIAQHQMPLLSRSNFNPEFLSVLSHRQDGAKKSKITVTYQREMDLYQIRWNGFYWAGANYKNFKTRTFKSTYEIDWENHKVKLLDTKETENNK
Assay: BLI, biotinylated VHH on streptavidin sensor, HlgB in solution
observationType: Kd (nM)
I only need the number, in nM, no unit after it.

Ask: For the binder Bm29C02 (VHH, also called anti-HlgB VHH Bm29C02) VHH: QVQLVESGGGLVQPGGSLRLSCTASGFTLDDWAIGWFRQAPGKEREGVSCTSSRERSSYYRDSVKGRFTISRDSTSNTVYLQMNELTLEDTAVYYCAADPQPYPCSLGQLGRYTTWGQGTQVTVSS , give its measured Kd value.
Reply: 0.01
